- RUN DESCRIPTION: yeast display, Sf9 membrane polyspecificity reagent, FACS + sequencing; frameworks hold sequencing errors
MEASURED QUANTITY: polyreactivity (PSR sort gate)

Field: example entries. Status: answers known.
[[record]]
seq_string = "QVQLVESGGGLVQAGGSLRLSCAASGRTFVGYAMGWYRQAPGKERELVAAISGSGVRTYYADSVKGRFTISRDNAKNTVYLQMNSLKPEDTAVYYCAVRQGWYNFRYDYWGQGTQVTVSS"
measured_quantity = "polyreactivity (PSR sort gate)"
value_measured = "high polyreactivity"

[[record]]
seq_string = "QVQLVESGGGLVQAGGSLRLSCAASGSIFVPYAMGWYRQAPGKERELVAAITWSGSSTYYADSVKGRFTISRDNAKNTVYLQMNSLKPEDTAVYYCAADYFDWEGNGYYYWGQGTQVTVSS"
measured_quantity = "polyreactivity (PSR sort gate)"
value_measured = "high polyreactivity"

[[record]]
seq_string = "QVQLVESGGGLVQAGGSLRLSSAASGSIFGSYAMGWYRQAPGKERELVAAITSGGSTYADSVKGRFTISRDNAKNTVYLQMNSLKPEDTAVYYCNAKFYQSTSNLVQSEYDYWGQGTQVTVSS"
measured_quantity = "polyreactivity (PSR sort gate)"
value_measured = "low polyreactivity"

[[record]]
seq_string = "QVQLVESGGGLVQAGGSLRLSCAASGSTFGVYARGWYRQAPGKERELVAAISSSTGSTYYADSVKGRFTISRDNEKNTVYLQMNSLKPEDTAVYYCAAAGYGKVRGDYWGQGTQVTVSS"
measured_quantity = "polyreactivity (PSR sort gate)"
value_measured = "low polyreactivity"


stdin: Requested read-out: polyreactivity (PSR sort gate). Entry: `QVQLVKSGGGLVQAGGSLRLSCAASGSTFYNAMGWYRQAPGKERELVAAISIGGSTYYADSVKGRFTNSRDNAKNTVYLQMNSLKPEDTAVYYCNTETGPSPVPVYDTEFDSWGQGTQVTVSS`
stdout: low polyreactivity

====

- RUN DESCRIPTION: yeast display, Sf9 membrane polyspecificity reagent, FACS + sequencing; frameworks hold sequencing errors
MEASURED QUANTITY: polyreactivity (PSR sort gate)

[[record]]
seq_string = "QVQLVESGGGLVQAGRSLRLSCAASGFTFRGYAMGWYRQAPGKERELVAAISVRGDSTYYADSVKGRFTISRDNAKNTVYLQMNSLKPEDTAVYYCNAALLGKQYYSNPNYDYWGQGTQVTVSS"
measured_quantity = "polyreactivity (PSR sort gate)"
value_measured = "high polyreactivity"

[[record]]
seq_string = "PLQLVESGGGLVQAGGSLRLSGAASGIIFNQYPMGWYRQAPGKEREFVPAISSSGGSTYYADSVKGRFTISRDYAKNTVYLQMNSLKPADTAVYFCSADSPGWTYTSRSYDYWGQGTQVTLSS"
measured_quantity = "polyreactivity (PSR sort gate)"
value_measured = "low polyreactivity"

[[record]]
seq_string = "QVQHVESGGRLVQAGGSLRLSCAASGRTFPQYAMGWYRQAPGKERELVAAITSGDSTNYSDSVKGRFTISRDNAKNTVYLQMNSLKPEDTAVYYCAAVYYYSKWYTPYEDVYWGQGTQVTVSS"
measured_quantity = "polyreactivity (PSR sort gate)"
value_measured = "low polyreactivity"

[[record]]
seq_string = "QVQLVESGGGLVQAGGSVRLSCAASGLTFQRYAMGGYRQAPGKERELVASITGNGGSTYYADSVKGRFSISRDNAKNTVYLQMNSLKPEDTAVYYCNARRYVRTCQQPLYDYWGQGTQVTVSS"
measured_quantity = "polyreactivity (PSR sort gate)"
value_measured = "high polyreactivity"


stdin: Fill in: polyreactivity (PSR sort gate) of `QDQHVESGGCLVQAGGSRRLSCAASGSILGAYTMGCYRQAQGKERELVAAITRRGGSTYYADSVKGRFTISRDNAKNTVYLQMNSLKPEDTAVYYWNAEYGVWYDYLVVPYDYWGQGTQVTVSS` is ___
stdout: low polyreactivity

====

- RUN DESCRIPTION: yeast display, Sf9 membrane polyspecificity reagent, FACS + sequencing; frameworks hold sequencing errors
MEASURED QUANTITY: polyreactivity (PSR sort gate)

[[record]]
seq_string = "QVQLVESGGGLVQAGGSLRLSCAASRRIFDVNSMGWYRQAPGKERELVAAISSGGNTKYADSVKGRFTISRDNAKNSVYLQMNSLKPEDTAVYYCIADGKAAGDYDYWGQGTQVTVSS"
value_measured = "low polyreactivity"

[[record]]
seq_string = "QVQLVESGRGLVQAGGSLRLSCAACGSIFVYNDRGCYRQAPGKERELVAAISASGGRTYSADSVKGRFTISRDNAKNTVYLQMNSLKPEDTAVYYCAKDWLWGPEYDYWGQGTQVTVSS"
value_measured = "low polyreactivity"

[[record]]
seq_string = "QVQLVESGGGLVQAGGSLRLSCAASGYTFFRYAMGWYRQAPGKERELVAAISGGGGSTYYADSVKGRFTISRDYAKNTVYLQMNSLKPEDTAVYYCAAESQAYSLYWGQGTQVTVSS"
value_measured = "high polyreactivity"

[[record]]
seq_string = "QVQLVESGGGLVQAGGSLRLSCAASGLTFGYYVMGWYRQAPGKERELVAAISFRGVSTYYADSVKGRFTISRDNAKKTVDLQMNSLKPEDTAVNYCARRYTSKGGYDYWGQGTQVTVSS"
value_measured = "high polyreactivity"

[[record]]
seq_string = "QVQHVESGGGLVQEGGSLRLSCAASGITFGRNTMGWYRQAPGKERELVAAIDSGGNTYADSVKGRFTISRDNAKNTVYLQMNSLKPVDTAVYSCAVDGGEFSSYGYWGQGTQVTVSS"
value_measured = "low polyreactivity"


stdin: Value lookup for polyreactivity (PSR sort gate); key = `QVQLVESGGGLVQAGGSLRLSCAASGSIFHYYAMGWYRQAPGKVRELVAAISSVGSTYYADSVKGRFTISRDYAKNTVYLQMNSLKPEDTAVYYCAAEAYAKRYVDRYSWYYYWGQGTQVTVSS`
stdout: high polyreactivity

stdin: Name the recorded polyreactivity (PSR sort gate) for `QVQLVESGGGLVQAGGSLRLSSAAYGIIIGYYAMGWYRQPPGKERELVAAISWSGGSTYYADSVKGRFTISRDNAKNTVYLQMNSLKPEDTAVYYCAAVVRRKSGNDTWRYNYWGQGTQVTVSS` .
stdout: high polyreactivity

stdin: For the sequence shown here, `QVQLVESGGGLVQAGGSLRLSCAASGIIFGRYDMGWYRQAPGKERELVAAITWSGGTTYYADSVKGRFTISRDNAKNTVYLQMNSLKPADTAVYYCNAVGRYSEDGYWGQGTQVTVSS` , give the reported polyreactivity (PSR sort gate).
stdout: high polyreactivity

====

- RUN DESCRIPTION: yeast display, Sf9 membrane polyspecificity reagent, FACS + sequencing; frameworks hold sequencing errors
MEASURED QUANTITY: polyreactivity (PSR sort gate)

Sample records with polyreactivity (PSR sort gate):
[[record]]
seq_string = "QVQLVESGGGLVQAGGSLRLSCAASGFILLDNAMGWYRQAPGKEREFVASINISGDRTFYADSVKGRFTISRDNAKNTVYLQMNSLKPEDTAVYYCAKEPGWGRRSTTAYDYWGQGTQVTVSS"
value_measured = "low polyreactivity"

[[record]]
seq_string = "QVQLVESGGGLVQAGGSLRLSCAASGFTFYYNAMGWYRQAPGKERELVAGISGRGGTTYYADSVKGRFTISRDNAKNTVYLQMNSLKPEDTAVYYCAARKVRARSKFEYWGQGTQVTVSS"
value_measured = "high polyreactivity"

[[record]]
seq_string = "QVQLVESCGLLVQAGGSLRLSCAASGSIIVYNTMRCYRQAPGKERELVAAIYSSGGSTYYADSVKGRFTISRDNAKNTVYLQMNILKPEDTAVYYCAAVNGYQYPPYYYNGYDYWGQGTHVTVSS"
value_measured = "low polyreactivity"

[[record]]
seq_string = "QVQLVESGGGLVQARVSLRLSSAASGFIIYPYVMGWYRQAPGKERELVATIRTDGRTSYADSVKGRFTISRDNAKNTFYLQMNSLKPEDTAVYYCDARSPLYYIVPYELVQYDYWGLGTQVTVSS"
value_measured = "high polyreactivity"


Below: the item to evaluate.
stdin: # polyreactivity (PSR sort gate) lookup, item `QDQLVDSCGGLVQARGSLRLSCAASGSIFGDYAMGWYRQAPGKEWELVAAISDTDSTNDADSVKGRFTISRDNAKNTVYLQMNSLKREDTAVYSCNGDTWGYLLGYYYYKFAYCGQGTQVTVSS`
stdout: low polyreactivity

====

- RUN DESCRIPTION: yeast display, Sf9 membrane polyspecificity reagent, FACS + sequencing; frameworks hold sequencing errors
MEASURED QUANTITY: polyreactivity (PSR sort gate)

Sample answers from the record:
[[record]]
seq_string = "QVQLVESGGGLVQAGGSLRLSCAASGSTSPGYAMGWYRQAPGKERELVAAITFRGTRTYYSDSVKGRFTISRDNAKNTVYLQMNSQKPDDTAVYYCNVVGYGPNRGRVDYCGQGTQVTVSS"
value_measured = "high polyreactivity"

[[record]]
seq_string = "QVQLVESGGGLVQAGGSLRLSCAASGRIFSRYAMGWYRQAPGKERELVAAISWSGGSTYYADSVKGRFTISRDNAKNNVYLQMNSLKPEDTAVYYCAARRSYSYGSWGQGTQVTVSS"
value_measured = "high polyreactivity"

[[record]]
seq_string = "QVQLVESGGGLVQAGGSLRLSCAASGFTSYRYAMGWYRQAPGKERELVAAISSSGRTDYADSVKGRFTISRDNAKNSVYLQMNSLKPEDTAVYYCAARTYSYVGRYKFDYWGQGTQVTVSS"
value_measured = "high polyreactivity"

[[record]]
seq_string = "QVQLVESGGGLVQARGSHRLSCAASGRTFVTNAMGWYRQAPGKERELVAAIRWSSDSTYYADSVKGRFTISRVIAKNTVYLQMNSLKPEYTAVYYCAARIPKQQGYGYWGQGTQVTVSS"
value_measured = "high polyreactivity"

[[record]]
seq_string = "QVQLVESGGGLVQAGGSLRLSCSASGSTFGDYAMRWYRQAPGKREFVAAISFSGGNTYYADSVKVRFTISRDNAKNTVYLQMNSLKPEDTAVYYCNADWDWFYSTGSLGFPDFYYWGQGTQVSVSS"
value_measured = "low polyreactivity"

[[record]]
seq_string = "QVQLVESGGGLVQAGGSLRLSCAASGYIFRSYAMGWYRQAPGKERELVAAITRSGGSTYYADSVKGRFTISRDNAKNTVYLQMNSPKPEDTAVYYCAVLPRGSNGMDYWGQGTQVTVSS"
value_measured = "low polyreactivity"


stdin: Could you tell me which polyreactivity (PSR sort gate) is on file for `QVQLVESGGGLVQAGGSLRLSCAASGSIFHPYTMGWSRQAPGKERELVAAISWSGGRTYYADSVKGRFTISRDNAKNTVYLQMNSLKPEDTAVYYCAADVTLWYDSWGQGTQVTVSS` ?
stdout: low polyreactivity

stdin: Given the entry `QVQLVESGGGLVQAGGSLRLSCAASGIIFGGYAMGWYRQAPGKERELVARITSGGSTNYADSVKGRFTISRDNAKNTVYLQMNSLKPEDTAVYYCNARGGWSWRFYYWGQGTQVTVSS` , report its measured polyreactivity (PSR sort gate).
stdout: high polyreactivity
